- Test system: polyoma virus transformed BHK21/c13 cells, line S100T1
- PROTOCOL_TEXT: Collocation inhibition test: clonal growth in sparsely and densely seeded areas of a cell density gradient of S100T1 cells in soft agar (Exp 13, 17, 19-26);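 also: soft agar cultures in 24-well plates with a cell density gradient in the top layer, compounds applied from DMSO stocks, clonal growth scored in sparse versus dense areas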
- DETAILS: Experiment 26; L: area with low cell density; Medium concentration; read after 24 hours
MEASURED_METRIC: Resulting clonal growth of treated cultures

COMPOUND | TESTED_TARGET | MEAS_VALUE
c1ccc2c(c1)cc1ccc3cccc4ccc2c1c34 [Benzo(a)pyrene, reference compound] | polyoma virus transformed BHK21/c13 cells, line S100T1 | ++
CC1=C(CC(=O)O)c2cc(F)ccc2/C1=C\c1ccc([S+](C)[O-])cc1 (stereo not shown) [Sulindac, reference compound] | polyoma virus transformed BHK21/c13 cells, line S100T1 | ++
CN(C)c1nc(N(C)C)nc(N(C)C)n1 [Altretamine, reference compound] | polyoma virus transformed BHK21/c13 cells, line S100T1 | ++
CCCCC1(O)C(=O)N(c2ccccc2)N(c2ccc(O)cc2)C1=O (stereo not shown) | polyoma virus transformed BHK21/c13 cells, line S100T1 | −
